Test system: NCI-H522 lung
METHOD DESCRIPTION: NCI-60 one-dose screen, 48 h (100 = growth as untreated, 0 = no growth, -100 = all killed)
SETTINGS: 10 µM unless noted
This is part of a sample that, as a whole, favours compounds with a hit. Of some 83,000 tested, about 20% had one in any assay.
RECORDED METRIC: growth (%)

INSERT INTO results (compound, data_value) VALUES
  ('COC(=O)CCC1=C(C)C2=NC1=CC1=NC(=CC3=NC(=Cc4[nH]c(/c(=C(/C)O)c4C)=C2)C(C(C)=O)=C3C)C(C)=C1CCC(=O)OC', 98.8),
  ('Cc1ccc(C(=O)C2=C(O)C(=O)N(Cc3cccnc3)C2c2ccccc2F)o1 (stereo not given)', 106),
  ('N#Cc1c(-c2ccccn2)[nH]c(=S)[nH]c1=O', 88.9),
  ('N#Cc1c2c(nn(-c3ccccc3)c1=O)C(O)=C([N+](=O)[O-])C(c1ccccc1)C2 (stereo not given)', 77.8),
  ('COc1ccc(/C=c2\nc3n(-c4ccccc4)c4nc5c6c(sc5c(=N)n4n-3c2=O)CCCC6)cc1', 83.4),
  ('O=C(CSc1nnc(-c2ccc(NC(=O)c3cccnc3)cc2)o1)Nc1cccc(Br)c1', 41.4),
  ('COc1ccc(C2c3ccc4ccccc4c3Oc3nc(C)[nH]c(=O)c32)cc1 (stereo not given)', 77),
  ('NCCCNc1nc2ccccc2c2c(=O)c3cccc(Cl)c3sc12', -48.5),
  ('COc1cc(/C=C/C(=O)c2cccc(-n3cc(-c4ccccc4)[nH]c3=O)c2)ccc1O', 26.2),
  ('CCN(CCNc1ccc(C)c2sc3ccccc3c(=O)c12)CC(C)(C)O', 74.2),
  ('CC1SC(c2ccc(OCc3ccccc3)cc2)N(NC(=O)C(O)(c2ccccc2)c2ccccc2)C1=O (stereo not given)', 24.4),
  ('COc1cc(C2CC(c3ccc(Nc4ccnc5cc(Cl)ccc45)cc3)=NN2C=O)cc(OC)c1OC (stereo not given)', 71.7),
  ('c1ccc(-c2nc([P+](c3ccccc3)(c3ccccc3)c3ccccc3)c(N3CCOCC3)o2)cc1', -3.16),
  ('O=C1/C(=C2/C=Nc3ccccc32)N(O)c2ccccc21', 57.1),
  ('O=C(/C=C/c1c(Cl)nc2sccn12)c1nccs1', 72.4),
  ('CCN1C(=O)N(CC)C2Nn3c(s/c(=C\c4cccc([N+](=O)[O-])c4)c3=O)=NC21 (stereo not given)', 18.5),
  ('CC/C=C\C/C=C\C[C@H](O)C/C=C1/C(=O)C=C[C@@H]1C/C=C\CCCC(=O)O', -22.8),
  ('N#Cc1nc2c(S(=O)(=O)c3ccc(Cl)cc3)c(N)n(Nc3cccc(Cl)c3)c2nc1C#N', 57.3),
  ('O=S(=O)(Nc1cccc(Cl)c1)c1ccc(-c2cnc(C3CC3)o2)cc1', -1.89),
  ('CC(C)(C)n1cc(-c2ccnc(NCCCNS(=O)(=O)c3ccccc3)c2)c(-c2ccccc2)n1', 74.6);

----------
System: ACHN renal
METHOD DESCRIPTION: NCI-60 one-dose screen, 48 h (100 = growth as untreated, 0 = no growth, -100 = all killed)
SETTINGS: 10 µM unless noted
Compounds without any hit were thinned out: in the full panel of roughly 83,000, 20% have a hit. Active and inactive are the calls of the source. Rule for the calls: active = growth percent below 10; inactive = the rest.
Measured growth by item
RECORDED METRIC: growth

INSERT INTO assay_data (molecule, target_system, recorded_metric, data_value) VALUES
  ('COCN1CCC2N(COC)CCC3N(COC)CCC1N23 (centres undefined)', 'ACHN renal', 'growth', '108% (inactive)'),
  ('CCN(CC)S(=O)(=O)c1cccc(-c2ccc3c(NC(=O)C4CC4)n[nH]c3c2)c1', 'ACHN renal', 'growth', '27.2% [6.25 µM] (inactive)'),
  ('N#Cc1nc2c(S(=O)(=O)c3ccc(Cl)cc3)c(N)n(Nc3cccc(Cl)c3)c2nc1C#N', 'ACHN renal', 'growth', '67.7% (inactive)'),
  ('Cc1cc(Cl)nc(NCc2cc(Nc3ccnc4cc(Cl)ccc34)ccc2F)n1', 'ACHN renal', 'growth', '76.1% (inactive)'),
  ('CCOC(=O)c1c2ncccc2n2c(=O)n(-c3ccccc3C)nnc12', 'ACHN renal', 'growth', '92.2% (inactive)'),
  ('COc1cc(CCC[P+](c2ccccc2)(c2ccccc2)c2ccccc2)cc2c1OCO2', 'ACHN renal', 'growth', '91.8% (inactive)'),
  ('O=C(NCCNc1cc(-c2cn(-c3ccccc3)nc2-c2cccc(O)c2)ccn1)Nc1ccccc1', 'ACHN renal', 'growth', '88.5% (inactive)'),
  ('COc1ccc(NC(=O)CSc2nnc(-c3cc(-c4ccccc4)nc4ccccc34)n2-c2ccccc2)cc1', 'ACHN renal', 'growth', '94.6% (inactive)'),
  ('Cc1ccc(N(C(=O)CCc2c[nH]c3ccccc23)[C@H](C(=O)Nc2ccc(Cl)cc2)c2cccc([N+](=O)[O-])c2)cc1', 'ACHN renal', 'growth', '61% (inactive)');

----------
Measured growth by item
System: ACHN renal
METHOD DESCRIPTION: NCI-60 one-dose screen, 48 h (100 = growth as untreated, 0 = no growth, -100 = all killed)
SETTINGS: 10 µM unless noted
This is part of a sample that, as a whole, favours compounds with a hit. Of some 83,000 tested, about 20% had one in any assay.
RECORDED METRIC: growth (%)

INSERT INTO results (compound, unit_descriptor, data_value) VALUES
  ('CC(C)CCC[C@@H](C)[C@H]1CC[C@H]2[C@@H](Nc3ccc(O)cc3)CCC[C@]12C', '%', 78.8),
  ('O=[N+]([O-])c1ccc(-c2cc(-c3ccc(Nc4nc(Nc5ccc(Cl)cc5)nc(Nc5ccc(Cl)cc5)n4)cc3)no2)cc1', '%', 94.5),
  ('COC(=O)c1c2c(c[n+]([O-])c1C)C(=O)C=CC2=O', '%', 14.2),
  ('O=[N+]([O-])c1ccc(OCCO)cc1', '%', 104),
  ('Cc1cc(NCc2cc(Nc3ccnc4cc(Cl)ccc34)ccc2F)nc(N2CCSCC2)n1', '%', -81.4),
  ('COc1cccc(-c2nn(-c3ccccc3)cc2-c2ccnc(NCCCNC(=O)c3cccc(C(F)(F)F)c3)c2)c1', '%', 31.7),
  ('N#C/C(=C\c1ccc(-c2ccccc2F)o1)c1nc(-c2ccco2)cs1', '%', 90.4),
  ('N=C1C(c2nc(-c3ccc(Br)cc3)cs2)=C(O)CN1CC1CCCO1 (stereo not given)', '%', 88),
  ('C[n+]1cc2c3c(ccc2c2ccc4cc5c(cc4c21)OCO5)OCO3', '%', -92.2),
  ('CC1=C([Se]CC(OC(=O)CC[Se]c2ccccc2)C(=O)NCCCCCC(=O)OCc2ccccc2)C(=O)c2ccccc2C1=O (stereo not given)', '%', 23.8),
  ('Cc1cc(NCc2cc(Nc3ccnc4cc(Cl)ccc34)ccc2F)nc(N2CCCC2)n1', '%', -69.2),
  ('CC(C)C(=O)Nc1n[nH]c2cc(-c3cccc(NS(=O)(=O)C4CC4)c3)ccc12', '%', 70),
  ('O=C1Nc2ccc(F)cc2C12Nc1cc(Cl)ccc1S2 (stereo not given)', '%', 99.8),
  ('CN(C)CCNc1nc2ccccc2c2c1c1c(n2Cc2ccccc2)-c2ccccc2C1=O', '%', -98.4),
  ('C#CCOc1nc(C)cc(C)c1C#N', '%', 99.7),
  ('CNC(=O)NCC1OC(n2cnc3c(NC(=O)Nc4ccccc4)ncnc32)C(O[Si](C)(C)C(C)(C)C)C1CC(=O)N(C)OC (stereo not given)', '%', 11.4),
  ('O=c1ccn2nc3ccccc3c2[nH]1', '%', 91.1),
  ('COc1ccc(/C=C/c2c(C(=O)/C=C/c3cccs3)c(C)nc3ccccc23)cc1', '%', 82.2),
  ('CC(C)(C)n1cc(-c2ccnc(NCCCNS(=O)(=O)c3ccccc3)c2)c(-c2ccccc2)n1', '%', 97.2),
  ('N[C@@H](CCCCNCC(=O)O)C(=O)O', '%', 96.8);

----------
Tested on: UACC-62 melanoma
METHOD DESCRIPTION: NCI-60 one-dose screen, 48 h
SETTINGS: 10 µM unless noted
Procedure: Growth inhibition of the UACC-62 human tumor cell line is measured as a screen for anti-cancer activity. Cells are grown in 96 well plates and exposed to the test compound for 48 hours. Compounds are tested at a single concentration, which is 10^-5 M for most compounds. The reported endpoint is percent growth (GI% or GIPRCNT), where numbers from 0 - 100% represent growth inhibition, and numbers from -100% - 0 represent cell death. For example, a value of 40 represents 60% growth inhibition. […]
About 83,000 compounds went through this panel and 20% of them were active in at least one assay; those are over-represented in the sample as a whole. Activity calls are given as the source filed them. The calls were made as follows: active = growth percent below 10; inactive = the rest.
Outcomes: active, inactive

INSERT INTO assay_data (compound, assigned_class) VALUES
  ('N#Cc1c(N)nn(C(=O)c2ccc(NC(=O)c3ccccn3)cc2)c1-c1ccc(Cl)cc1', 'inactive'),
  ('COc1cc(/C=C/C(=O)N2CCN(C(=O)c3cc(OC)c(OC)c(OC)c3)CC2)ccc1OCCCN1C(=O)c2cccc3cccc(c23)C1=O', 'inactive'),
  ('COC(=O)CCC1=C(C)C2=NC1=CC1=NC(=CC3=NC(=Cc4[nH]c(/c(=C(/C)O)c4C)=C2)C(C(C)=O)=C3C)C(C)=C1CCC(=O)OC', 'inactive'),
  ('O=C(Nc1ccc(-n2cc(-c3ccncc3)c(-c3ccc(Cl)c(O)c3)n2)cc1)N1CCOCC1', 'inactive'),
  ('NCCCNc1nc2ccccc2c2c(=O)c3cccc(Cl)c3sc12', 'inactive'),
  ('Cc1ccc(NS(=O)(=O)c2ccc3c(c2)C2OCCC2C(c2ccc(C(=O)C(C)C)cc2)N3)cc1C (centres undefined)', 'inactive'),
  ('COc1cccc(Nc2nccc(Nc3ccc4[nH]ncc4c3)n2)c1', 'active'),
  ('COc1ccc2c(c1)O/C(=C\c1cccc(OCC(=O)Nc3nc4ccccc4s3)c1)C2=O', 'inactive'),
  ('O=C(O)CN1C(=O)CCC1=O', 'inactive');
